target: HLA-C0702 (Homo sapiens)
procedure_text: Competitive peptide binding assay, CIR-C0702
pIC50: −log10 of the molar value. Peptide text beside a SMILES is read from it.
Kindly supply the reported pIC50 values for the records listed here.

stdin: Tell me its pIC50 given C[C@H](NC(=O)[C@H](CO)NC(=O)[C@H](CO)NC(=O)[C@@H](N)Cc1ccc(O)cc1)C(=O)N[C@@H](CC(N)=O)C(=O)N[C@@H](CC(N)=O)C(=O)N[C@@H](CS)C(=O)N[C@H](C(=O)N[C@@H](Cc1ccccc1)C(=O)O)[C@@H](C)O [Epitope M64] (H-YSSANNCTF-OH; N-terminus and C-terminus assumed) as the entry.
stdout: < 4.82

stdin: Tell me its pIC50 given CC[C@H](C)[C@H](NC(=O)[C@H](C)NC(=O)CNC(=O)[C@@H](NC(=O)[C@H](Cc1ccc(O)cc1)NC(=O)[C@@H](NC(=O)[C@@H](N)CC(C)C)[C@@H](C)O)[C@@H](C)O)C(=O)N[C@@H](CCCCN)C(=O)N[C@@H](CC(C)C)C(=O)O [Epitope M15] (H-LTYTGAIKL-OH; N-terminus and C-terminus assumed) as the entry.
stdout: < 4.82

stdin: Tell me its pIC50 given CC[C@H](C)[C@H](NC(=O)[C@H](CC(N)=O)NC(=O)[C@H](CC(=O)O)NC(=O)[C@H](CO)NC(=O)[C@H](CO)NC(=O)[C@@H](N)CO)C(=O)N[C@@H](C)C(=O)N[C@@H](CC(C)C)C(=O)N[C@@H](CC(C)C)C(=O)O [Epitope M111] (H-SSSDNIALL-OH; N-terminus and C-terminus assumed) as the entry.
stdout: < 4.82

stdin: Tell me its pIC50 given CC(C)[C@H](NC(=O)[C@@H](NC(=O)[C@H](Cc1ccccc1)NC(=O)[C@@H]1CCCN1C(=O)[C@@H](NC(=O)CNC(=O)[C@H](CC(=O)O)NC(=O)[C@@H](NC(=O)[C@@H](N)Cc1ccccc1)C(C)C)C(C)C)C(C)C)C(=O)O [Epitope M96] (H-FVDGVPFVV-OH; N-terminus and C-terminus assumed) as the entry.
stdout: < 4.82

stdin: Tell me its pIC50 given CC[C@H](C)[C@H](NC(=O)[C@H](C)NC(=O)[C@H](C)NC(=O)[C@H](CC(N)=O)NC(=O)[C@H](CC(N)=O)NC(=O)[C@H](C)NC(=O)[C@@H]1CCCN1C(=O)[C@H](CC(N)=O)NC(=O)[C@H](CCCNC(=N)N)NC(=O)[C@@H](N)[C@@H](C)O)C(=O)O [Epitope M117] (H-TRNPANNAAI-OH; N-terminus and C-terminus assumed) as the entry.
stdout: > 5.30

stdin: Tell me its pIC50 given CSCC[C@H](NC(=O)[C@H](CO)NC(=O)[C@H](CCCNC(=N)N)NC(=O)[C@@H](NC(=O)[C@H](CCCNC(=N)N)NC(=O)[C@H](C)NC(=O)[C@@H](N)Cc1ccccc1)[C@@H](C)O)C(=O)N[C@@H](Cc1c[nH]c2ccccc12)C(=O)N[C@@H](CO)C(=O)N[C@@H](Cc1ccccc1)C(=O)O [Epitope M71] (H-FARTRSMWSF-OH; N-terminus and C-terminus assumed) as the entry.
stdout: 4.82 to 5.30

====

target: HLA-B4001 (Homo sapiens, UniProt P01889, A65T/A93T/A95T/D138N/D98Y/E176V/E69K/N87E/Q56L/Q94N/R180L/S121R/S35A/S48T/T167S/V36M/W171L/Y33H/Y91S)
procedure_text: Competitive peptide binding assay, CIR-B4001
conditions: HMy2.CIR-B4001 cells, reference Cy5-[…], class from inhibition at 5 and 15 μM, flow cytometry MFI; read-out: Binding affinity with HLA-B4001
Peptide text beside a SMILES is read from it.
reported_endpoint: IC50

stdin: Tell me its IC50 given CC[C@H](C)[C@H](NC(=O)[C@H](C)NC(=O)[C@H](C)NC(=O)[C@H](CC(N)=O)NC(=O)[C@H](CC(N)=O)NC(=O)[C@H](C)NC(=O)[C@@H]1CCCN1C(=O)[C@@H](N)CC(N)=O)C(=O)N[C@H](C(=O)O)C(C)C [Epitope Y18] (H-NPANNAAIV-OH; N-terminus and C-terminus assumed) as the entry.
stdout: > 15 µM

stdin: Tell me its IC50 given CC[C@H](C)[C@H](NC(=O)[C@@H](NC(=O)CNC(=O)[C@H](CC(N)=O)NC(=O)[C@H](CO)NC(=O)[C@H](CC(=O)O)NC(=O)[C@H](C)N)[C@@H](C)O)C(=O)N[C@H](C(=O)N[C@H](C(=O)O)C(C)C)[C@@H](C)O [Epitope Y216] (H-ADSNGTITV-OH; N-terminus and C-terminus assumed) as the entry.
stdout: 5 to 15 µM

stdin: Tell me its IC50 given CC[C@H](C)[C@H](NC(=O)[C@H](CC(N)=O)NC(=O)[C@@H](NC(=O)[C@H](CCC(=O)O)NC(=O)[C@@H]1CCCN1C(=O)[C@H](CC(N)=O)NC(=O)[C@H](Cc1ccccc1)NC(=O)[C@H](CO)NC(=O)[C@@H](N)Cc1c[nH]c2ccccc12)[C@@H](C)O)C(=O)O [Epitope Y297] (H-WSFNPETNI-OH; N-terminus and C-terminus assumed) as the entry.
stdout: > 15 µM
